- Assay Name: Cytotoxicity against human MT4 cells assessed as reduction of cell viability after 96 hrs by MTT assay
- Assay type: cell-based
Quantity: CC50 at 96 h

compound="CC(C)C12C=CC(C)(CC1)C1C(=O)N(N3CCCCS/C3=N\\Cc3ccccc3)C(=O)C12 (stereo not drawn)" assay_result="> 100 µM"
compound="C=CCNC(=S)NN1C(=O)C2C3CC(C(C)C)C(C=C3C)C2C1=O (stereo not drawn)" assay_result="> 100 µM"
compound="CC(C)C12C=CC(C)(CC1)C1C(=O)N(NC(=S)Nc3ccc(I)cc3)C(=O)C12 (stereo not drawn)" assay_result="> 100 µM"

----------
Here the recorded CC50 at 96 h is given for each entry.
- Assay Name: Cytotoxicity against human MT4 cells assessed as reduction of cell viability after 96 hrs by MTT assay
- Format: cell-based
Quantity: CC50 at 96 h (µM)

compound="C=CCNC(=S)NN1C(=O)C2C(C1=O)C1(C(C)C)C=CC2(C)CC1 (stereo unspecified)" quantity="CC50 at 96 h" qual=> assay_result=100
compound="CC(C)C12C=CC(C)(CC1)C1C(=O)N(N3CCCCS/C3=N\\c3ccc(I)cc3)C(=O)C12 (stereo unspecified)" quantity="CC50 at 96 h" qual== assay_result=59
compound="C=CC/N=C1\\SCCCCN1N1C(=O)C2C(C1=O)C1(C(C)C)C=CC2(C)CC1 (stereo unspecified)" quantity="CC50 at 96 h" qual== assay_result=58
compound="CC1=CC2C(C(C)C)CC1C1C(=O)N(NC(=S)Nc3ccc(Cl)c(Cl)c3)C(=O)C21 (stereo unspecified)" quantity="CC50 at 96 h" qual== assay_result=41
compound="CC(C)C12C=CC(C)(CC1)C1C(=O)N(N3CCCCS/C3=N\\c3ccc(Cl)cc3)C(=O)C12 (stereo unspecified)" quantity="CC50 at 96 h" qual== assay_result=32
compound="CC(C)C12C=CC(C)(CC1)C1C(=O)N(N3CCCCS/C3=N\\c3ccc(Cl)c(Cl)c3)C(=O)C12 (stereo unspecified)" quantity="CC50 at 96 h" qual=> assay_result=100
